assayProtocol: qHTS Assay for Lipid Storage Modulators (AID 1519)
conditionDescription: Drosophila S3 cells, BODIPY lipid droplet/cell ratio, laser cytometry; measured here: lipid channel max response; cells loaded with oleic acid
Inconclusive results are not listed.
Examples of compounds with documented max response follow.
// return numeric value only (unit: %, not printed)

[ask] GET /values?readout=max response&item= C=C[C@](C)(O)CCC1C(=C)CC(O)C2C(C)(C)CCCC12C (some centres undefined)
[reply] 14.1

###

Test system: ECU
assayProtocol: qHTS profiling for inhibitors of Plasmodium falciparum proliferation (AID 504749);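 further: 0% = DMSO vehicle and full inhibition = artemisinin control; nearly all actives have a fitted effect of over 60% in size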
conditionDescription: P. falciparum in erythrocytes, SYBR Green DNA, 72 h; series mostly up to 12.8 µM
Method: NIH National Institute of Allergy and Infectious Diseases [NIAID] NIH Chemical Genomics Center [NCGC] […] Because mature erythrocytes lack DNA, only Plasmodium-derived DNA is detected. NCGC Assay Protocol Summary: The SYBR Green viability assay was adapted from a method described previously (Plouffe et al., 2008). […] The following morning, fluorescence intensity at 485(14) nm excitation and 535(25) nm emission wavelengths was measured on an EnVision (Perkin Elmer) plate reader. […]
Records with an inconclusive call do not appear. The source made the active and inactive calls. Calls follow the shape of the dose curve; as a rule, active = well fitted inhibition curve with a large enough effect; inconclusive = small, poorly fitted or top-dose-only effect; inactive = flat fitted curve, though single readings scatter.
readoutName: outcome

NCc1ccccc1CC(=O)N[C@@H]1C(=O)N2C(C(=O)O)=C(CSc3nnnn3CC(=O)O)CS[C@@H]12 inactive
NC[C@@H]1O[C@@H](O[C@H]2[C@H](O)[C@H](O[C@@H]3O[C@H](CO)[C@@H](O)[C@H](N)[C@@H]3O)[C@@H](N)C[C@H]2N)[C@H](N)C[C@@H]1O inactive
COc1ccc2c(c1)N(C[C@@H](C)CN(C)C)c1ccccc1S2 inactive
Cc1cccc(C)c1NC(=O)[C@H](C)N inactive
